Hey, just so you know, these numbers are from the supplement of paper PMC9233669.

tested on: biotinyl-Phe-oxazolone; assay: self-aminoacylation, catalytic enhancement (BFO) (fold over background); higher = more active; k-Seq, kA / k0A0; sequences stand for … in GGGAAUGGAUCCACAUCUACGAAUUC…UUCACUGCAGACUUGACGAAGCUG
Variants at the floor of the assay were thinned out.
Label scheme for self-aminoacylation: lower than 2 is class 0, 2 and above is class 1.

**Query** Decide: self-aminoacylation of GCACACUUCAAGCCAUCGGUC [Fam1B.1 aminoacylation ribozyme variant] >= 2?
**Result** class 1

**Query** Decide: self-aminoacylation of AAGCUUCCUAAUAGUCGCAAG [Fam3.1 aminoacylation ribozyme variant] >= 2?
**Result** class 1

**Query** Decide: self-aminoacylation of AUUACCCUGGUCAUAGGGUGA [Fam2.1 aminoacylation ribozyme variant] >= 2?
**Result** class 1

**Query** Decide: self-aminoacylation of CCACACUUCAAUCAAUUGGUC [Fam1B.1 aminoacylation ribozyme variant] >= 2?
**Result** class 0

**Query** Decide: self-aminoacylation of CCACUCUUCAAGCAAUGGGUC [Fam1B.1 aminoacylation ribozyme variant] >= 2?
**Result** class 0

**Query** Decide: self-aminoacylation of AUUGCCCUGGACAUCGAGUGA [Fam2.1 aminoacylation ribozyme variant] >= 2?
**Result** class 1

**Query** Decide: self-aminoacylation of UAGUUUGCUAAGAGUCGCAAG [Fam3.1 aminoacylation ribozyme variant] >= 2?
**Result** class 0

**Query** Decide: self-aminoacylation of CUUCGCCUAGGUCAUCGGGUG [Fam2.2 aminoacylation ribozyme variant] >= 2?
**Result** class 1

**Query** Decide: self-aminoacylation of AAGUUUGCUAAUAGUCGCAUA [Fam3.1 aminoacylation ribozyme variant] >= 2?
**Result** class 0

**Query** Decide: self-aminoacylation of CGGCACUUCAAGCAAUCGGUC [Fam1B.1 aminoacylation ribozyme variant] >= 2?
**Result** class 1

**Query** Decide: self-aminoacylation of AAGUUUGCAAAGAGUCGCAAG [Fam3.1 aminoacylation ribozyme variant] >= 2?
**Result** class 0

**Query** Decide: self-aminoacylation of CCACACUUCAAGCGAUCGGUA [Fam1B.1 aminoacylation ribozyme variant] >= 2?
**Result** class 0

**Query** Decide: self-aminoacylation of AUUCACCUAGGUCAUCUGCUG [Fam2.2 aminoacylation ribozyme variant] >= 2?
**Result** class 1

**Query** Decide: self-aminoacylation of CUAAUUCAAACAAUCGGCCUG [Fam1A.1 aminoacylation ribozyme variant] >= 2?
**Result** class 1

**Query** Decide: self-aminoacylation of CAACACUUCAAGCAAACGGUC [Fam1B.1 aminoacylation ribozyme variant] >= 2?
**Result** class 0

====

tested on: biotinyl-Leu-oxazolone; assay: self-aminoacylation, catalytic enhancement (BLO) (fold over background); higher = more active; k-Seq, kA / k0A0; sequences stand for … in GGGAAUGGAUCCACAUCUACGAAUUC…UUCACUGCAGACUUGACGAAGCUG
Variants at the floor of the assay were thinned out.
ASSAY_ENDPOINT: self-aminoacylation
Lab note: jot down the number only; don't add units.

**Query** Quick one: give measured self-aminoacylation for AUUUACCUAGCUCAUCGGGUG [Fam2.2 aminoacylation ribozyme variant]
**Result** 2.58

**Query** Quick one: give measured self-aminoacylation for AAGUUUGGUAAUAGUCGCAAU [Fam3.1 aminoacylation ribozyme variant]
**Result** 1.8

**Query** Quick one: give measured self-aminoacylation for CUACUCCAAACAAUAGGUCUG [Fam1A.1 aminoacylation ribozyme variant]
**Result** 0.744

**Query** Quick one: give measured self-aminoacylation for AUUAGCCUUGUCAUCGAGUGA [Fam2.1 aminoacylation ribozyme variant]
**Result** 3.97

**Query** Quick one: give measured self-aminoacylation for AUUACUCUGGUCAUCCAGUGA [Fam2.1 aminoacylation ribozyme variant]
**Result** 5.29

**Query** Quick one: give measured self-aminoacylation for CUAAUACAAACAAUCGGUCUG [Fam1A.1 aminoacylation ribozyme variant]
**Result** 0.477
